The origin of these recorded values is patent US10787430B2.

Assay: Microsome stability evaluation in rat liver microsomes
Type: in vitro ADME
Details: read-out: Rat microsome, t½
reported_endpoint: half-life (min)
Unit min implied. Number only.

Specify measured half-life for "[2H]C([2H])(Oc1cccc(O)c1C=O)c1cncnc1-c1ccnn1C(C)C" .
18

Given the compound CC(C)n1nccc1-c1ncccc1COc1cccc(O)c1C=O [GBT440, reference compound] , write its reported half-life.
22

Give a short answer stating reported half-life for [2H]C([2H])(Oc1cccc(O)c1C=O)c1cccnc1-n1ccnc1C(C)C [Example 29e] .
11

State its half-life: [2H]C([2H])(Oc1cc(F)cc(O)c1C=O)c1cccnc1-c1ccnn1C(C)C [Example 27b]
19

====

Molecular target: hemoglobin (20% hct blood) (Homo sapiens, UniProt P68871+P69905)
Construct: Normal whole blood was collected from adult healthy donors; from tissue; host or cells: normal human whole blood (red blood cells), adult healthy donors
Sequence (P69905 2-142 limits assumed): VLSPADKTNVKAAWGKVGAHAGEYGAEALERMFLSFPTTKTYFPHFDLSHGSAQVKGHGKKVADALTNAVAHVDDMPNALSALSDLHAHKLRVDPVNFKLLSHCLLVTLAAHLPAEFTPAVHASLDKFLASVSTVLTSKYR
Sequence (P68871 2-147 limits assumed): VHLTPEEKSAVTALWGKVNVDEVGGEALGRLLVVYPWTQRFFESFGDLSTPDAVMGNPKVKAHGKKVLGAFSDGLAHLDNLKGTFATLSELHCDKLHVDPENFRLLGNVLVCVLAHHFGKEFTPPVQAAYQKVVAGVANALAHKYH
Experiment: Dose-dependent whole blood OEC studies
Assay type: cell-based
Conditions: 0.5 mM compound, 37° C., 1 hr
Values of delta p50 0.5 mM greater than or equal to -30% map to yes (1); values below map to no (0).

1. CC(C)n1nccc1-c1ncccc1COc1ccc2ncsc2c1C=O [Example 12] = no (0)
2. CC(C)n1nccc1-c1ncoc1COc1cccc(O)c1C=O [Example 67] = yes (1)
3. [2H]C([2H])(Oc1cccc(O)c1C=O)c1cccnc1-n1ccnc1C(C)C [Example 29e] = no (0)

Tell me whether delta p50 0.5 mM is at least -30% here: Cc1nc(COc2cccc(O)c2C=O)c(-c2ccnn2C(C)C)o1 [Example 68]
yes (1)

Hi, just wondering whether CC(C)n1nccc1-c1scnc1COc1cccc(O)c1C=O [Example 64] shows delta p50 0.5 mM of -30% or higher.
no (0)

====

Molecular target: hemoglobin (20% hct blood) (Homo sapiens, UniProt P68871+P69905)
Construct: Normal whole blood was collected from adult healthy donors; from tissue; host or cells: normal human whole blood (red blood cells), adult healthy donors
Assay: Dose-dependent whole blood OEC studies
Assay type: cell-based
Settings: 0.5 mM compound, 37° C., 1 hr
Recorded delta p50 0.5 mM for the following molecules
# output: bare number, implied unit %

1. Cc1nc(-c2ccnn2C(C)C)c(COc2cccc(O)c2C=O)s1 = −21.90
2. [2H]C([2H])(Oc1cccc(O)c1C=O)c1cncnc1-c1ccnn1C(C)C = −46.80
3. CC(C)n1ncc(F)c1-c1ncccc1COc1ccc2ncoc2c1C=O = −35.50
4. CC(C)n1nccc1-c1ncccc1COc1ccc2sncc2c1C=O = −37.60
5. CC(C)n1nccc1-c1ncccc1COc1ccc2snnc2c1C=O = −30
6. [2H]C([2H])(Oc1cccc(O)c1C=O)c1nccnc1-n1ccnc1C(C)C = −16.80

Read off the recorded delta p50 0.5 mM for "CC(C)n1nccc1-c1cccnc1COc1ccc2ncoc2c1C=O"
−34.30

Fill in reported delta p50 0.5 mM for this entry: "[2H]C(C)(C)n1nccc1-c1nccnc1COc1cccc(O)c1C=O"
−36.40

Using the record for "CC(C)n1nccc1-c1ncn(C)c1COc1cccc(O)c1C=O" , state its measured delta p50 0.5 mM.
−41.80

====

Target: hemoglobin (20% hct blood) (Homo sapiens, UniProt P68871+P69905)
Construct: Normal whole blood was collected from adult healthy donors; from tissue; host or cells: normal human whole blood (red blood cells), adult healthy donors
Test: Dose-dependent whole blood OEC studies
Format: cell-based
Conditions: 0.5 mM compound, 37° C., 1 hr
delta p50 0.5 mM under -40% gets class 1, anything at or over -40% gets class 0.

Item "CC(C)n1nccc1-c1ncncc1COc1ccc2ncsc2c1C=O" : delta p50 0.5 mM beneath -40%, strictly?
class 0

Below -40% on delta p50 0.5 mM? Entry CC(C)n1nccc1-c1ncccc1COc1cccc(O)c1C=O [GBT440, reference compound]
class 0

In plain terms, does [2H]C([2H])(Oc1cc(F)cc(O)c1C=O)c1cccnc1-c1ccnn1C(C)C [Example 27b] come in under -40% for delta p50 0.5 mM?
class 1

Hello, I'm reviewing records and need to know if delta p50 0.5 mM of "[2H]C([2H])(Oc1cccc(O)c1C=O)c1ncccc1-c1ccnn1C(C)C" is below -40%. Could you check?
class 0

Check if delta p50 0.5 mM falls below -40% for CC(C)n1nccc1-c1ncncc1COc1ccc2cccnc2c1C=O [Example 56] .
class 0
